test: Plasma stability; type: in vitro ADME; conditions: 120 min
quantity.name: Plasma S Human 120 min (% Remaining)

> print(dat)
                              smiles.record  observed.measurement
1  COc1ccc(Cl)cc1N(CC(=O)Nc1ccccc1Sc1ccccc1)S(C)(=O)=O                  97.8
2  CC(=O)c1cccc(N(CC(=O)Nc2ccccc2Sc2ccccc2)S(C)(=O)=O)c1                  97.3
3  CC(=O)c1cccc(N(CC(=O)Nc2ccccc2Oc2ccccc2)S(C)(=O)=O)c1                  96.4

###

Target: CYP2D6 (Homo sapiens, UniProt P10635)
Sequence (P10635 whole entry): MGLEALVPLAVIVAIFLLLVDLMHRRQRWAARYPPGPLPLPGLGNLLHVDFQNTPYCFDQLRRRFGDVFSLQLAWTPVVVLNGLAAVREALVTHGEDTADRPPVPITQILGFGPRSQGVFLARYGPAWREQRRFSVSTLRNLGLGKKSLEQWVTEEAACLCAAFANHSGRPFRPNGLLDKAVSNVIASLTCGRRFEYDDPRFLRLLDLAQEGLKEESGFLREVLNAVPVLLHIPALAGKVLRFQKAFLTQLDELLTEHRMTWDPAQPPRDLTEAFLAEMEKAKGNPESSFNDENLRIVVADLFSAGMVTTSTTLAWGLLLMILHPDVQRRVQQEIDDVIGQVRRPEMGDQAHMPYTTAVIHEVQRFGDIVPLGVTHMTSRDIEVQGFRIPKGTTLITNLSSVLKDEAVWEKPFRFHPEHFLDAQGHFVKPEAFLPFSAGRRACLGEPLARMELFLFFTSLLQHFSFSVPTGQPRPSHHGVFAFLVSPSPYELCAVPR
Assay: CYP450 drug metabolism inhibition, 2D6
Assay type: in vitro ADME
Details: criterion remaining activity >50%
Procedure: In order to analyze the drug metabolism of PMSA compound, ADME evaluation was requested to the Daegu-Gyeongbuk Advanced Medical industry Promotion Foundation (DGMIF). Metabolic stability of drugs using liver microsomes (microsomal stability), drug metabolism inhibitory ability by five CYP450 enzymes, plasma metabolism (plasma stability), plasma protein binding, and intestinal permeability of drugs (PAMPA, parallel artificial membrane permeability assay) were analyzed. […]
quantity.name: CYP 2D6 remaining activity (%)

> print(dat)
                              smiles.record                       target.or.system  observed.measurement
1  CC(=O)c1cccc(N(CC(=O)Nc2ccccc2Oc2ccccc2)S(C)(=O)=O)c1  CYP2D6 (Homo sapiens, UniProt P10635)                  53.1

(1) CC(=O)c1cccc(N(CC(=O)Nc2ccccc2Nc2ccccc2)S(C)(=O)=O)c1
(2) CC(=O)c1cccc(N(CC(=O)Nc2ccccc2Sc2ccccc2)S(C)(=O)=O)c1
(3) CC(=O)c1cccc(N(CC(=O)Nc2ccccc2-c2ccccc2)S(C)(=O)=O)c1
Exam item: list the entries in increasing order of CYP 2D6 remaining activity. Labels, ranked as asked.
1, 3, 2

###

experiment: Microsomal stability (M); type: in vitro ADME, mouse; settings: M of H/M; criterion >60%
quantity.name: Microsomal stability (>60%) M

Recorded Microsomal stability (>60%) M, per entry:
> print(dat)
                                   compound  observed.measurement
1  CC(=O)c1cccc(N(CC(=O)Nc2ccccc2Nc2ccccc2)S(C)(=O)=O)c1 [#25-N]                   4.0
2  CC(=O)c1cccc(N(CC(=O)Nc2ccccc2Oc2ccccc2)S(C)(=O)=O)c1 [#25-O]                   3.1

(I) COc1ccc(Cl)cc1N(CC(=O)Nc1ccccc1Sc1ccccc1)S(C)(=O)=O [#25-D12]
(II) CC(=O)c1cccc(N(CC(=O)Nc2ccccc2-c2ccccc2)S(C)(=O)=O)c1 [#25-C]
(III) Cc1cc(C)cc(N([C@@H](C)C(=O)Nc2ccccc2Sc2ccccc2)S(C)(=O)=O)c1 [#25-D5]
(IV) CC(=O)c1cccc(N(CC(=O)Nc2ccccc2Sc2ccccc2)S(C)(=O)=O)c1 [#25]
Order by Microsomal stability (>60%) M, ascending. # output: labels, in the requested order
II, IV, III, I

###

Target: CYP2C9 (Homo sapiens, UniProt P11712)
Sequence (P11712 whole entry): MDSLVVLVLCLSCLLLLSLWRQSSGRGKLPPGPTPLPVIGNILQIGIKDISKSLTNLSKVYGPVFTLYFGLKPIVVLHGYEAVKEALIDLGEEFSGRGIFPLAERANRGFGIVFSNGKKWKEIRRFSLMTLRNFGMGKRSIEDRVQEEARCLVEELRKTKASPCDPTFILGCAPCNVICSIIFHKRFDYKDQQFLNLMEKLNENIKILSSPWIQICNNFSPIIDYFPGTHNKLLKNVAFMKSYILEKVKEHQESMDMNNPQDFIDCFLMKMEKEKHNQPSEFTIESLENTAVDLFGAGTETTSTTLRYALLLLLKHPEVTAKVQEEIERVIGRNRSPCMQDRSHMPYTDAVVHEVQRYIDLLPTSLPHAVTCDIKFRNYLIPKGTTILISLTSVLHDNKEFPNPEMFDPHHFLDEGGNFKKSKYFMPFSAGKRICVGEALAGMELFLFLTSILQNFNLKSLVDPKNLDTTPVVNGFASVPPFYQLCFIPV
Experiment: CYP450 drug metabolism inhibition, 2C9
Type: in vitro ADME
Settings: criterion remaining activity >50%
Method: In order to analyze the drug metabolism of PMSA compound, ADME evaluation was requested to the Daegu-Gyeongbuk Advanced Medical industry Promotion Foundation (DGMIF). Metabolic stability of drugs using liver microsomes (microsomal stability), drug metabolism inhibitory ability by five CYP450 enzymes, plasma metabolism (plasma stability), plasma protein binding, and intestinal permeability of drugs (PAMPA, parallel artificial membrane permeability assay) were analyzed. […]
quantity.name: CYP 2C9 remaining activity (%)

The cases that follow already have their CYP 2C9 remaining activity on record.
> print(dat)
                                   compound               quantity.name  units.label  observed.measurement
1  COc1ccc(Cl)cc1N(CC(=O)Nc1ccccc1Sc1ccccc1)S(C)(=O)=O [#25-D12]  CYP 2C9 remaining activity            %                  59.8
2  CC(=O)c1cccc(N(CC(=O)Nc2ccccc2Oc2ccccc2)S(C)(=O)=O)c1 [#25-O]  CYP 2C9 remaining activity            %                  49.7
3  CC(=O)c1cccc(N(CC(=O)Nc2ccccc2Sc2ccccc2)S(C)(=O)=O)c1 [#25]  CYP 2C9 remaining activity            %                  63.7
4  Cc1cc(C)cc(N([C@@H](C)C(=O)Nc2ccccc2Sc2ccccc2)S(C)(=O)=O)c1 [#25-D5]  CYP 2C9 remaining activity            %                  52.4

(A) CC(=O)c1cccc(N(CC(=O)Nc2ccccc2-c2ccccc2)S(C)(=O)=O)c1 [#25-C]
(B) CC(=O)c1cccc(N(CC(=O)Nc2ccccc2Nc2ccccc2)S(C)(=O)=O)c1 [#25-N]
When their CYP 2C9 remaining activity values are compared, which is larger, A or B ? Answer with the label corresponding to your selection.
A
(A: 67.2%, B: 47%)

###

target: CYP3A4 (Homo sapiens); experiment: CYP450 drug metabolism inhibition, 3A4; assay type: in vitro ADME; conditions: criterion remaining activity >50%
Sequence (P08684 whole entry): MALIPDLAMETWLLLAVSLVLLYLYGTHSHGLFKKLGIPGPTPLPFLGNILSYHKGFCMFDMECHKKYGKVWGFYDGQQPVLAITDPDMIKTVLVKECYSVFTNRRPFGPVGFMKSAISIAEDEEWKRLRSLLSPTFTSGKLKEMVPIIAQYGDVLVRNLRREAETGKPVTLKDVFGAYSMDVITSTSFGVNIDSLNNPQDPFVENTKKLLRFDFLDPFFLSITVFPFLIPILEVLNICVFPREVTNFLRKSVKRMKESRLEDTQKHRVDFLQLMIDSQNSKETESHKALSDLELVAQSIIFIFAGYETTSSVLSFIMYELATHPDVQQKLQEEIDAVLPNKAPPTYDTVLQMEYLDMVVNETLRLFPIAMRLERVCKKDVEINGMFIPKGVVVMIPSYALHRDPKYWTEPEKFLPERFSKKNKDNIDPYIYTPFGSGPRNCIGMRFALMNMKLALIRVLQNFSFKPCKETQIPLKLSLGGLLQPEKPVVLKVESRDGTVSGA
quantity.name: CYP 3A4 remaining activity (%)

Completed entries (count: 3):
> print(dat)
                              smiles.record       target.or.system  observed.measurement
1  CC(=O)c1cccc(N(CC(=O)Nc2ccccc2-c2ccccc2)S(C)(=O)=O)c1  CYP3A4 (Homo sapiens)                    72
2  COc1ccc(Cl)cc1N(CC(=O)Nc1ccccc1Sc1ccccc1)S(C)(=O)=O  CYP3A4 (Homo sapiens)                    26
3  Cc1cc(C)cc(N([C@@H](C)C(=O)Nc2ccccc2Sc2ccccc2)S(C)(=O)=O)c1  CYP3A4 (Homo sapiens)                  13.4

(1) CC(=O)c1cccc(N(CC(=O)Nc2ccccc2Nc2ccccc2)S(C)(=O)=O)c1
(2) CC(=O)c1cccc(N(CC(=O)Nc2ccccc2Oc2ccccc2)S(C)(=O)=O)c1
// select label with min value of measured CYP 3A4 remaining activity from [ 1 , 2 ] Lab log: write the label of the selected item as the result.
1
(1: 43.1%, 2: 70.1%)

###

Molecular target: CYP2C19 (Homo sapiens)
Sequence (P33261 whole entry): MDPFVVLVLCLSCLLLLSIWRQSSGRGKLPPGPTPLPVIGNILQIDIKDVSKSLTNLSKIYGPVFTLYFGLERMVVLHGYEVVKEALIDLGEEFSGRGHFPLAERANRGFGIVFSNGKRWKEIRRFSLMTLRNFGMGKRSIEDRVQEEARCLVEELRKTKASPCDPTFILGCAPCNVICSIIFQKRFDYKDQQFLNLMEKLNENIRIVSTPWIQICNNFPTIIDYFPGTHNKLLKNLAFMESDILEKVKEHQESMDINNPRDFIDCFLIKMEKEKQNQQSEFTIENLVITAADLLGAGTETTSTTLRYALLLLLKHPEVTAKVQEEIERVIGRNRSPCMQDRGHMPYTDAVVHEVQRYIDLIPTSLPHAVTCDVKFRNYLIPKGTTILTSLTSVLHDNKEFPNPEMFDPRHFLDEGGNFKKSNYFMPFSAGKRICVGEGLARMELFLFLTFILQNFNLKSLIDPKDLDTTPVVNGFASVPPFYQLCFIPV
Experiment: CYP450 drug metabolism inhibition, 2C19
Format: in vitro ADME
Details: criterion remaining activity >50%
Method: In order to analyze the drug metabolism of PMSA compound, ADME evaluation was requested to the Daegu-Gyeongbuk Advanced Medical industry Promotion Foundation (DGMIF). Metabolic stability of drugs using liver microsomes (microsomal stability), drug metabolism inhibitory ability by five CYP450 enzymes, plasma metabolism (plasma stability), plasma protein binding, and intestinal permeability of drugs (PAMPA, parallel artificial membrane permeability assay) were analyzed. […]
quantity.name: CYP 2C19 remaining activity (%)

(P) CC(=O)c1cccc(N(CC(=O)Nc2ccccc2Nc2ccccc2)S(C)(=O)=O)c1
(Q) CC(=O)c1cccc(N(CC(=O)Nc2ccccc2Sc2ccccc2)S(C)(=O)=O)c1
Kindly identify the item with the lower CYP 2C19 remaining activity figure among these two: P and Q Output the label that corresponds to your choice.
Q

(I) CC(=O)c1cccc(N(CC(=O)Nc2ccccc2Oc2ccccc2)S(C)(=O)=O)c1
(II) Cc1cc(C)cc(N([C@@H](C)C(=O)Nc2ccccc2Sc2ccccc2)S(C)(=O)=O)c1
Lower CYP 2C19 remaining activity: I or II ? # respond with the chosen item's label
I

###

test system: plasma proteins; experiment: Plasma protein binding (PPB); format: in vitro ADME, Human; details: Human
Reported PPB Human (%, bound) by item:

Give PPB Human (%, bound) for the following compound: "Cc1cc(C)cc(N([C@@H](C)C(=O)Nc2ccccc2Sc2ccccc2)S(C)(=O)=O)c1"
99.8 %, bound

Look up PPB Human (%, bound) of "CC(=O)c1cccc(N(CC(=O)Nc2ccccc2Oc2ccccc2)S(C)(=O)=O)c1" and report it.
98.4 %, bound

State its PPB Human (%, bound): "COc1ccc(Cl)cc1N(CC(=O)Nc1ccccc1Sc1ccccc1)S(C)(=O)=O"
99.8 %, bound

Specify measured PPB Human (%, bound) for "CC(=O)c1cccc(N(CC(=O)Nc2ccccc2Sc2ccccc2)S(C)(=O)=O)c1" .
98.4 %, bound

Retrieve PPB Human (%, bound) measured for "CC(=O)c1cccc(N(CC(=O)Nc2ccccc2-c2ccccc2)S(C)(=O)=O)c1" and print it.
97.9 %, bound

Supply measured PPB Human (%, bound) of "CC(=O)c1cccc(N(CC(=O)Nc2ccccc2Nc2ccccc2)S(C)(=O)=O)c1" in your reply.
97.9 %, bound

All figures here come from patent US12691084B2.
